Each recorded value in this set is attributed to the kinase profiling compilation of Christmann-Franck et al. (2016).

# Target Or Test System: DYRK1B (human)
# Assay Explanation: KINOMEscan competition binding
# Assay Conditions: compound 10.0 µM
Quantity Measured: kinase still bound, per cent of control
The answer consists of two parts: a number and, after it, its unit.

Compound: Cc1ccc(NC(=O)c2cccc(C(C)(C)C#N)c2)cc1Nc1ccc2ncn(C)c(=O)c2c1
kinase still bound, per cent of control: 100%

Dear reader, for each entry below, please note its kinase still bound, per cent of control.
1. O=C(NC1CC1)c1cccc(-c2ccc3c(NC(=O)C4CC4)n[nH]c3c2)c1
2. OCCCNc1cc(-c2ccnc(Nc3cccc(Cl)c3)n2)ccn1
3. O=C(O)c1ccc(Nc2ncc3c(n2)-c2ccc(Cl)cc2C(c2c(F)cccc2F)=NC3)cc1
4. COc1cc(C(=O)NC2CCN(C)CC2)ccc1Nc1ncc2c(n1)N(C1CCCC1)C(C)CC(=O)N2C (centres undefined)
5. CCC(=O)N1CCN(c2ccc(-n3c(=O)ccc4cnc5ccc(-c6cnc7ccccc7c6)cc5c43)cc2C(F)(F)F)CC1
6. O=C1Nc2ccc(I)cc2/C1=C/c1cc(Br)c(O)c(Br)c1
7. Nc1ccc(-c2ccc3ncc4ccc(=O)n(-c5cccc(C(F)(F)F)c5)c4c3c2)cn1
8. Cc1ccc(C(=O)Nc2cccc(C(F)(F)F)c2)cc1Nc1cncc(C(N)=O)c1

89%
4%
91%
100%
87%
41%
97%
100%
